B1: TPR t1 (parent)
chain: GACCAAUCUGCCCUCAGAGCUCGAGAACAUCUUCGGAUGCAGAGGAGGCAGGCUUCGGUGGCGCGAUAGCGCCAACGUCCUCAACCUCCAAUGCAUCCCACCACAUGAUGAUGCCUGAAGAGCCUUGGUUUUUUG

Variants of: B1
measurement.notes: polymerase ribozyme fitness, log enrichment relative to wild type (log ratio); higher = more active; in vitro selection for triplet polymerase activity
quantity: polymerase ribozyme fitness (log ratio)

Problem: Fill in: polymerase ribozyme fitness (log ratio) of A43U C49A C114G is ___
Result: -1.78

Problem: Continue with C11G C62A
Result: -0.516

Problem: Continue with G51C U78A U106A
Result: -4.81

Problem: Continue with C22A C53U G113U
Result: -4.93

Problem: Continue with C12G G51A
Result: -2.1

Problem: Continue with G69A A91U
Result: -6.02

Problem: Continue with C12A C22A A26C G120U
Result: -4.36

Problem: Continue with A2C C70A U116C U126C U133A
Result: -5.29

Problem: Continue with C62A U78G U87C
Result: -1.47

Problem: Continue with A27G A41U C64U
Result: -3.32

Problem: Continue with A75U G128A
Result: -1.64

Problem: Continue with U9A A26G A50U
Result: -1.68

Problem: Continue with `C11U`
Result: -0.381

Problem: Continue with A50G U54G A95C
Result: -1.88

Problem: Continue with C4G U9A C62G C89A C115A G117C
Result: -5.76

Problem: Continue with A18G U92C C104U G117U C123A
Result: -2.56

Problem: Continue with G10A C13U G42C A46G C101U G110C
Result: -6.91

Problem: Continue with G110A A119C
Result: -2.25

Problem: Continue with C70A C97U
Result: -2.23

Problem: Continue with C62G U129A
Result: -3.98

Problem: Continue with C22G U96C
Result: -3.36

Problem: Continue with G63U C114G G117U
Result: -5.98

Problem: Continue with G69U A105C
Result: -0.532

Problem: Continue with A90U G113U
Result: -2.89

Problem: Continue with C94G C115A
Result: -0.789

Problem: Continue with G60C U78A
Result: -0.111

Problem: Continue with G61A G93A A105G G122A
Result: -5.32

Problem: Continue with U32G C70G C98G
Result: -6.14

Problem: Continue with C11U G39U
Result: -1.37

Problem: Continue with A29G U55G G58A C72G U131C U133G
Result: -2.75

Problem: Continue with G60C G113C
Result: -2.72

Problem: Continue with A91G C104U A118C C123G C124A U126A
Result: -0.422

Problem: Continue with G48C C101U U112C
Result: 0.0907

Problem: Continue with A18U A37C C101A
Result: -4.02

Problem: Continue with G36U U59C C86U
Result: -1.77

Problem: Continue with C20U G135U
Result: -1.97
